From: ChEMBL document CHEMBL3046449

Kindly state inhibition of growth at 5 g/ha for each of the entries shown.
- Tested on: Pontederia vaginalis
- procedure-details: Herbicidal activity against Monochoria vaginalis assessed as growth inhibition in paddy condition under greenhouse at 5 g/ha measured after 18 days by preemergence activity assay
- Format: functional
- test-context: pre-emergence, 432 h, read-out: GI

COc1cc(OC)nc(NC(=O)NS(=O)(=O)c2c(C#N)cnn2C)n1 < 5%
COc1cc(OC)nc(NC(=O)NS(=O)(=O)c2c([N+](=O)[O-])cnn2C)n1 < 5%

Input line: Can you look up inhibition of growth at 5 g/ha on Pontederia vaginalis for CCCCn1ncc(C(=O)OCC)c1S(=O)(=O)NC(=O)Nc1nc(OC)cc(OC)n1 ?
Output line: < 5%
